# Tested on: Prothrombin (Bos taurus)
# Assay remarks: Inhibition of bovine plasma thrombin using Boc-Val-Pro-Arg-AMC as substrate at 25 uM preincubated for 15 mins measured after 10 mins by fluorimetric assay
The source made the active and inactive calls.
Attribute measured: inhibition

Solved cases (6 shown):
| Chemical smiles | Tested on | Result |
| --- | --- | --- |
| O=C1NC(=S)N/C1=C\c1cccs1 | Prothrombin (Bos taurus) | 16% |
| O=C1NC(=S)S/C1=C\c1sccc1Cl | Prothrombin (Bos taurus) | 28% |
| CC(=O)N1C(=S)NC(=O)[C@@H]1CC(C)C | Prothrombin (Bos taurus) | inactive |
| O=C1NC(=O)/C(=C/C2CCCCC2)S1 | Prothrombin (Bos taurus) | inactive |
| O=C1NC(=O)/C(=C/c2ccc3ccccc3c2)S1 | Prothrombin (Bos taurus) | 19% |
| Cn1cc(/C=C2\SC(=S)NC2=O)c2ccccc21 | Prothrombin (Bos taurus) | 27% |

Write down the reported inhibition of CCCCC/C=C1\SC(=S)NC1=O , test system: Prothrombin (Bos taurus).
18%

====

# Tested on: Prothrombin (Bos taurus) (UniProt P00735)
# Assay remarks: Inhibition of bovine plasma thrombin using Boc-Val-Pro-Arg-AMC as substrate at 25 uM preincubated for 15 mins measured after 10 mins by fluorimetric assay
Property: inhibition; scope: individual molecules

Solved cases (4 shown):
| Chemical smiles | Result |
| --- | --- |
| O=C1NC(=S)S/C1=C\c1cc(Br)cs1 | 21% |
| C/C(=C1/NC(=S)NC1=O)c1ccc2ccccc2c1 | 10% |
| O=C1NC(=O)/C(=C/c2ccc(Cl)s2)S1 | 29% |
| O=C1NC(=S)N/C1=C\c1ccc([N+](=O)[O-])cc1 | 19% |

Kindly review the next molecule as well.
Tell me the measured inhibition of C/C(=C1/SC(=O)NC1=O)c1ccc2ccccc2c1 , please.
20%

====

# System: Escherichia coli
# Assay remarks: Inhibition of Escherichia coli MetAP at 10 uM after 15 mins by fluorescence analysis
Active and inactive are the calls of the source.
Attribute measured: inhibition

Solved cases (10 shown):
| Compound | Result |
| --- | --- |
| CCCCC/C=C1\SC(=S)NC1=O | 21% |
| C/C(=C1/SC(=S)NC1=O)c1ccccc1 | inactive |
| O=C1NC(=O)C(Cc2ccccc2)S1 (stereo not given) | inactive |
| O=C1NC(=S)N/C1=C\c1ccc(Cl)s1 | inactive |
| O=C1NC(=S)N/C1=C\c1ccc([N+](=O)[O-])cc1 | 13% |
| Nc1ccc(/C=C2\SC(=S)NC2=O)cc1 | inactive |
| O=C1NC(=O)/C(=C/c2ccc(Br)s2)S1 | 12% |
| O=C1CNC(=O)N1 | inactive |
| O=C1NC(=O)/C(=C/c2ccc([N+](=O)[O-])cc2)N1 | inactive |
| O=C1NC(=S)S/C1=C\c1ccc(O)c(O)c1 | 65% |

Tell me the measured inhibition of O=C1CSC(=O)N1 , please.
inactive

Tell me the measured inhibition of O=C1NC(=O)/C(=C/c2ccccn2)S1 , please.
12%

Tell me the measured inhibition of Cc1ccc(/C=C2\NC(=O)NC2=O)cc1 , please.
11%

Tell me the measured inhibition of O=C1NC(=O)/C(=C/c2ccc(Cl)s2)S1 , please.
inactive

Tell me the measured inhibition of CC(=O)n1cc(/C=C2\SC(=O)NC2=O)c2ccccc21 , please.
inactive

Tell me the measured inhibition of O=C1NC(=O)[C@H](Cc2c[nH]c3ccccc23)N1 , please.
19%

Tell me the measured inhibition of C/C(=C1/NC(=S)NC1=O)c1cccs1 , please.
42%

Tell me the measured inhibition of NCCCC[C@@H]1NC(=S)NC1=O , please.
inactive

Data origin, for the record: ChEMBL document CHEMBL1955761
